target: WT RhlR (Pseudomonas aeruginosa, UniProt P54292); construct: expressed in transfected cells; host or cells: E. coli carrying pBAD-A-rhlR, pCS26-prhlA-luxCDABE and pACYC-pqsE or empty pACYC; experiment: E. coli prhlA-luxCDABE luciferase reporter assay; assay type: cell-based; settings: without PqsE; read-out: EC50 value
measurementType: EC50

// sample CCCC(=O)N[C@H]1CCOC1=O [C4HSL, N-butyryl-L-homoserine lactone] , its EC50 was ~2000 nM

====

target: RhlR (T58V) (Pseudomonas aeruginosa, UniProt P54292, T58V); construct: expressed in transfected cells; host or cells: E. coli carrying pBAD-A-rhlR mutant, pCS26-prhlA-luxCDABE and pACYC-pqsE or empty pACYC; experiment: E. coli prhlA-luxCDABE luciferase reporter assay; assay type: cell-based; settings: Vector (no pqsE)
measurementType: pEC50
Scale: negative log10 of molar concentration, which is what pEC50 denotes.

> print(dat)
               chemsmiles  measurementtype  experimentalvalue
1  CCCC(=O)N[C@H]1CCOC1=O            pEC50               6.18

API: the following record is the query input.
The reported pEC50 value, RhlR (T58V) (Pseudomonas aeruginosa, UniProt P54292, T58V), for `CCCCCC(=O)N[C@H]1CCOC1=O` reads 6.09

====

Target: RhlR (L69M) (Pseudomonas aeruginosa, UniProt P54292, L69M)
Construct: expressed in transfected cells; host or cells: E. coli carrying pBAD-A-rhlR mutant, pCS26-prhlA-luxCDABE and pACYC-pqsE or empty pACYC
Experiment: E. coli prhlA-luxCDABE luciferase reporter assay
Type: cell-based
Conditions: Vector (no pqsE)
From the text: Previous analysis of the RhlR LBP focused on highly conserved residues that were known from other AHL-binding proteins to be important contacts for AHL molecules, particularly the lactone head group. We performed conservation analyses on 300 LuxR-type receptors to determine variable and moderately conserved residues in the LBP (Fig. 1B) and, in conjunction with our previously determined experimental structure of WT RhlR bound to the synthetic agonist mBTL, used for docking C4- and C6HSL. […]
measurementType: EC50 (µM)
Report as a plain number; the unit µM is understood.

Just so you know, measured EC50 for CCCC(=O)N[C@H]1CCOC1=O [C4HSL, N-butyryl-L-homoserine lactone] came out at 13.8

====

target: WT RhlR (Pseudomonas aeruginosa); construct: expressed in transfected cells; host or cells: E. coli carrying pBAD-A-rhlR, pCS26-prhlA-luxCDABE and pACYC-pqsE or empty pACYC; test: E. coli prhlA-luxCDABE luciferase reporter assay; format: cell-based; details: pqsE co-expressed; read-out: EC50
Let's look at some molecules and their measured pEC50.
Value format note: pEC50 is -log10 of concentration (mol/L); just state the number.

> print(dat)
                 chemsmiles  experimentalvalue
1  CCCCCC(=O)N[C@H]1CCOC1=O               5.03

Note to self: pEC50 recorded for `CCCC(=O)N[C@H]1CCOC1=O` was 6.27

====

Target: RhlR (T58V) (Pseudomonas aeruginosa, UniProt P54292, T58V)
Construct: expressed in transfected cells; host or cells: E. coli carrying pBAD-A-rhlR mutant, pCS26-prhlA-luxCDABE and pACYC-pqsE or empty pACYC
Sequence (P54292 1-241 T58V): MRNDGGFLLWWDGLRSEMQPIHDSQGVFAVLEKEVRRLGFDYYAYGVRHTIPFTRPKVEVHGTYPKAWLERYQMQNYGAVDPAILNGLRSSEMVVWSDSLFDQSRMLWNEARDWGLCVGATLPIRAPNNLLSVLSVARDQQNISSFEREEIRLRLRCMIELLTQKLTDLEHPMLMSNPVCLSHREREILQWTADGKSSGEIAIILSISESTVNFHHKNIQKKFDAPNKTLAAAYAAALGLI
Test: E. coli prhlA-luxCDABE luciferase reporter assay
Assay type: cell-based
Details: pqsE co-expressed
measurementType: pEC50
Recall that pEC50 is obtained by taking minus log10 of the concentration measured in molar.

> print(dat)
                                   compound                                       tgt  measurementtype  experimentalvalue
1  CCCC(=O)N[C@H]1CCOC1=O [C4HSL, N-butyryl-L-homoserine lactone]  RhlR (T58V) (Pseudomonas aeruginosa, UniProt P54292, T58V)            pEC50               6.83

Consider now this further compound.
Value of pEC50 reported for the compound CCCCCC(=O)N[C@H]1CCOC1=O [C6HSL] is 6.95

====

target: RhlR (T58F) (Pseudomonas aeruginosa, UniProt P54292, T58F); construct: expressed in transfected cells; host or cells: E. coli carrying pBAD-A-rhlR mutant, pCS26-prhlA-luxCDABE and pACYC-pqsE or empty pACYC; test: E. coli prhlA-luxCDABE luciferase reporter assay; type: cell-based, Escherichia coli; details: pqsE co-expressed
Quick reference for EC50 among some molecules
Just the number please, in nM, no unit attached.

> print(dat)
                                   molecule                                       tgt  measurementtype  experimentalvalue
1  CCCC(=O)N[C@H]1CCOC1=O [C4HSL, N-butyryl-L-homoserine lactone]  RhlR (T58F) (Pseudomonas aeruginosa, UniProt P54292, T58F)             EC50                198

Okay, now this molecule:
The molecule listed as CCCCCC(=O)N[C@H]1CCOC1=O [C6HSL] has a reported EC50 of 103
